Test system: Neuregulin-1 EGF-like domain
Assay: binders of neuregulin-1 EGF-like domain, primary screen, biochemical, small-molecule microarray, 635 nm fluorescence (AID 1081);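 note: binding of the protein to compounds printed on small-molecule microarray slides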
Conditions: small-molecule microarray binding, higher = more signal
I'd be grateful if you could share measured composite z-score for these entries.

Guide cases for composite z-score, answers given:
[N-]=[N+]=NCc1ccccc1[C@@H]1OC(c2ccc(OCCCO)cc2)=N[C@]1(Cc1ccccc1)C(N)=O 1.29
COc1ccc(C#Cc2ccc3c(c2)[C@]2(C(=O)N3)[C@H](C(=O)NC[C@H](O)c3ccccc3)[C@H]3C(=O)O[C@H](c4ccccc4)[C@H](c4ccccc4)N3[C@@H]2c2ccc(O)cc2)cc1 1.34
C[N+](C)(C)CCCC[C@@H]1NC(=O)[C@H]2C[C@@H](C(=O)NCCCCCCNC(=O)CS)[C@@H](c3cccc(OCCO)c3)N2C1=O 0.439
COC(=O)[C@@]1(Cc2ccc(F)cc2)[C@H]2c3cc(C(=O)N(C)C)n(Cc4ccccc4)c3C[C@H]2CN1C(=O)c1ccccc1 0.337

For every listed record, write down its composite z-score.
1. C=CCOC(=O)[C@@H]1[C@H]2C(=O)O[C@H](c3ccccc3)[C@H](c3ccccc3)N2[C@H](c2ccc(OCCOC(=O)[C@@H]3C[C@@H]4C(=O)NCC(=O)N4[C@@H]3c3ccc(O)cc3)cc2)[C@@]12C(=O)Nc1ccc(I)cc12
2. COc1cc2c(cc1OC)CN(C(=O)[C@H]1[C@@H]3C(=O)O[C@@H](c4ccccc4)[C@@H](c4ccccc4)N3[C@@H](c3ccc(O)cc3)[C@]13C(=O)Nc1ccccc13)CC2
3. CC[C@@H]1C=C(C(=O)O)[C@H](c2ccc(Br)cc2)N1S(=O)(=O)c1ccc(C)cc1
4. CCCCCCc1nc(-c2ccc(OC)nc2)cc2c1[Si](C(C)C)(C(C)C)O[C@H]2c1ccccc1
5. COCCOC(=O)N1C(=O)[C@@]2(c3cc(C#CCC(C(=O)OC)C(=O)OC)ccc31)[C@H](C(=O)N1CCN(c3ncccn3)CC1)[C@H]1C(=O)O[C@H](c3ccccc3)[C@H](c3ccccc3)N1[C@@H]2c1ccccc1OCCO
6. COC(=O)[C@@]1(Cc2ccc(F)cc2)[C@H]2c3cc(C(=O)N(C)C)n(Cc4cc(F)c(F)c(F)c4)c3C[C@H]2CN1C(=O)c1ccccc1

Reply:
[1.26, 1.38, 0.503, -0.821, 1.27, 0.971]

For every listed record, write down its composite z-score.
1. O=C1O[C@@H](c2ccccc2)[C@@H](c2ccccc2)N2[C@@H](c3ccccc3OCCO)[C@]3(C(=O)Nc4ccccc43)[C@@H](C(=O)Nc3nc4ccccc4s3)[C@H]12
2. C=C(COC)/C(=C/C[C@H](OC(C)=O)c1ccc(CO)o1)c1cc(C(=O)OC)ccc1OC

Reply:
1. 1.26
2. 0.7
